Recorded values, source patent US5413990A.

Kb by entry:
Target: LHRH (Rattus norvegicus)
Construct: evaluated in an in vitro test for LHRH antagonist potency (pA2); endogenous in cells; host or cells: pituitary cells (rat, from my own knowledge of the cited method)
Sequence (P30969 whole entry): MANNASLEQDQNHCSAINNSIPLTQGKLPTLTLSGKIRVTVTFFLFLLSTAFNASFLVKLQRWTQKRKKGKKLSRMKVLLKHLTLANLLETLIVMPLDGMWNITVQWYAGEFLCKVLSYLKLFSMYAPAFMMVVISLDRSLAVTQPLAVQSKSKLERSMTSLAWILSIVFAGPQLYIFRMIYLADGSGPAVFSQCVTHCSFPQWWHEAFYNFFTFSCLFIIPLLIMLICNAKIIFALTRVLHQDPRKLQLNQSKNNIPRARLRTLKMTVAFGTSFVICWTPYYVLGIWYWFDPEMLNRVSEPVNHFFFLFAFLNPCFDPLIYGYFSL
Experiment: in vitro test for LHRH antagonist potency (pA2)
Assay type: cell-based
Conditions: negative logarithm of the antagonist concentration required to shift the response curve produced by the agonist leuprolide to two-fold higher concentration
Numbered stars: 1 amine (or outer) side, 2 acyl side, 3 side chain; on linkers, the order of the positions; unused ones are H or OH. Square brackets hold non-standard residues; d marks the D form. Peptide text beside a SMILES is read from it. * marks the point of attachment. dPhe(4-Cl) = N[C@H](Cc1ccc(Cl)cc1)C(=O)O; NH(2-(2-pyridyl)ethyl) = c1ccc(CCN*)nc1; d2Nal = N[C@H](Cc1ccc2ccccc2c1)C(=O)O; Lys(iPr) = CC(C)NCCCC[C@H](N)C(=O)O; NMeY = CN[C@@H](Cc1ccc(O)cc1)C(=O)O; Cyclohexylacetyl = O=C(CC1CCCCC1)*; dCit = NC(=O)NCCC[C@@H](N)C(=O)O; d3Pal = N[C@H](Cc1cccnc1)C(=O)O; Nicotinoyl = O=C(c1cccnc1)*; CO = O=C([*:1])[*:2]; Butyryl = CCCC(=O)*
Enter the number, and then the unit.

Example results:
Measured Kb (LHRH (Rattus norvegicus)), entry CCCC(=O)N[C@H](Cc1ccc2ccccc2c1)C(=O)N[C@H](Cc1ccc(Cl)cc1)C(=O)N[C@H](Cc1cccnc1)C(=O)N[C@@H](CO)C(=O)N(C)[C@@H](Cc1ccc(O)cc1)C(=O)N[C@H](CCCCNC(=O)c1cccnc1)C(=O)N[C@@H](CC(C)C)C(=O)N[C@@H](CCCCNC(C)C)C(=O)N1CCC[C@H]1C(=O)N[C@H](C)C(N)=O [Example 2b] (Butyryl-[d2Nal][dPhe(4-Cl)][d3Pal]S[NMeY][dK](Nicotinoyl)L[Lys(iPr)]P[dA]-NH2) : 8.91 pM

Measured Kb (LHRH (Rattus norvegicus)), entry CC(C)C[C@H](NC(=O)[C@@H](CCCNC(N)=O)NC(=O)[C@H](Cc1ccc(O)cc1)N(C)C(=O)[C@H](CO)NC(=O)[C@@H](Cc1cccnc1)NC(=O)[C@@H](Cc1ccc(Cl)cc1)NC(=O)[C@@H](Cc1ccc2ccccc2c1)NC(=O)NCCc1ccccn1)C(=O)N[C@@H](CCCNC(=N)N)C(=O)N1CCC[C@H]1C(=O)N[C@H](C)C(N)=O [Example 8g] ({NH(2-(2-pyridyl)ethyl)-CO}-[d2Nal][dPhe(4-Cl)][d3Pal]S[NMeY][dCit]LRP[dA]-NH2) : 17.8 pM

Further cases:
Measured Kb (LHRH (Rattus norvegicus)), entry CC(C)C[C@H](NC(=O)[C@@H](CCCCNC(=O)c1cccnc1)NC(=O)[C@H](Cc1ccc(O)cc1)N(C)C(=O)[C@H](CO)NC(=O)[C@@H](Cc1cccnc1)NC(=O)[C@@H](Cc1ccc(Cl)cc1)NC(=O)[C@@H](Cc1ccc2ccccc2c1)NC(=O)CC1CCCCC1)C(=O)N[C@@H](CCCCNC(C)C)C(=O)N1CCC[C@H]1C(=O)N[C@H](C)C(N)=O [Example 2i] (Cyclohexylacetyl-[d2Nal][dPhe(4-Cl)][d3Pal]S[NMeY][dK](Nicotinoyl)L[Lys(iPr)]P[dA]-NH2) : 1580 pM
